- Tested on: Toxoplasma gondii
- protocolNotes: Inhibition of Toxoplasma gondii cell growth
- Format: functional, organism-based
quantityMeasured: pIC50
Notebook: values listed as pIC50 are -log10 of the concentration (mol/L).

| compoundSmiles | pIC50 |
| --- | --- |
| CCOc1ccc(OCC)c(NCc2cnc3nc(N)nc(N)c3c2C)c1 | 7.22 |
| CCOc1ccc(OCC)c(N(C)Cc2cnc3nc(N)nc(N)c3c2C)c1 | 7.22 |
| COc1ccc(C(F)(F)F)cc1N(C)Cc1cnc2nc(N)nc(N)c2c1C | 6.70 |

Provide only the value of recorded pIC50 for Cc1cccc(SCc2cnc3nc(N)nc(N)c3c2C)c1
6.70

Provide only the value of recorded pIC50 for COc1ccc(SCc2cnc3nc(N)nc(N)c3c2C)cc1
6.52

Provide only the value of recorded pIC50 for COc1cc(NCc2cnc3nc(N)nc(N)c3c2C)cc(OC)c1
7.22

Provide only the value of recorded pIC50 for COc1ccc(C(F)(F)F)cc1NCc1cnc2nc(N)nc(N)c2c1C
7.70
